system under test: MUSK (Homo sapiens)
Sequence (O15146 24-869): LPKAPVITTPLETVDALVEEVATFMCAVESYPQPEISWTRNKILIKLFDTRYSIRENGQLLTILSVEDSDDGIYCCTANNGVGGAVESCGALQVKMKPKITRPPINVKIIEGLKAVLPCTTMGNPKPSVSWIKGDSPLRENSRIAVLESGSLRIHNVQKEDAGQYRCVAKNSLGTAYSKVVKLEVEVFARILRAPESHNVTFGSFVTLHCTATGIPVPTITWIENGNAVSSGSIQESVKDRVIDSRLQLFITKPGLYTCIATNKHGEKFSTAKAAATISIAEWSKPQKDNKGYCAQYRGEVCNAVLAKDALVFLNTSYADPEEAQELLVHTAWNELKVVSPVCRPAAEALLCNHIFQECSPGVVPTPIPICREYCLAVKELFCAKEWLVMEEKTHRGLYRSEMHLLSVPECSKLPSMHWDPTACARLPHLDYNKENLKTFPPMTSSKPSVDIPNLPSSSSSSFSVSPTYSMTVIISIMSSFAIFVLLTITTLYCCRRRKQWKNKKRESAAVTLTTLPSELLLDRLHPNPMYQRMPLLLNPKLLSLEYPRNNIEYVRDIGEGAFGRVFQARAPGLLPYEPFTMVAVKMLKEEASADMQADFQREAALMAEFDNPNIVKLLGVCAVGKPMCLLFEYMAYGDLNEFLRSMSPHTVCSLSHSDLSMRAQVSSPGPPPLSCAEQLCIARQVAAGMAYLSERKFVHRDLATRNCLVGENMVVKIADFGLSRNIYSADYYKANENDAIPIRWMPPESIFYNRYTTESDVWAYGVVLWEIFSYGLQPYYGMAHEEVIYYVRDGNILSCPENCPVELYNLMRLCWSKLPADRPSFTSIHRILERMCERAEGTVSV
measured metric: IC50

Determine reported IC50 for NC(N)=NCCC[C@H](NCN1CCN(C(=O)c2cc(Cc3n[nH]c(=O)c4ccccc34)ccc2F)CC1)C(=O)O ; test system: MUSK (Homo sapiens).
> 10 µM

----------
system under test: UniProt P51451
Sequence (P51451 whole entry): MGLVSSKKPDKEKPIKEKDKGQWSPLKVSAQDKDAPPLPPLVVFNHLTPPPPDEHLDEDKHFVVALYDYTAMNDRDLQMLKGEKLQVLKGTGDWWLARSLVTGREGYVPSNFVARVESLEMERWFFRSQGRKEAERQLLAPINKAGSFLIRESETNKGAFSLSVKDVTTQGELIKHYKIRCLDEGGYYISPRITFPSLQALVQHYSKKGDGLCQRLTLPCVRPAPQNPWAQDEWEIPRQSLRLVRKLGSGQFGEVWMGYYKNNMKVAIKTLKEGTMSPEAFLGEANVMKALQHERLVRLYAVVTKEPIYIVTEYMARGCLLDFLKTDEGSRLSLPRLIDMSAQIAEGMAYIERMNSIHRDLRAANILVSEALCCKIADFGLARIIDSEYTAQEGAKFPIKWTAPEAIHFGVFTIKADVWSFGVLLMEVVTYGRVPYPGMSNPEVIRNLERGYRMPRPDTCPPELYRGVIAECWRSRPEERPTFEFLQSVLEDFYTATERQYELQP
pIC50: −log10 of the molar value.
measured metric: pIC50

Determine reported pIC50 for NC(N)=NCCC[C@H](NCN1CCN(C(=O)c2cc(Cc3n[nH]c(=O)c4ccccc34)ccc2F)CC1)C(=O)O [PPNR-4] ; test system: UniProt P51451.
< 5.00

----------
system under test: PARP9 (Homo sapiens)
assay remarks: Selectivity profile (other isoforms of PARP and NRP family)
measured metric: IC50

Determine its reported IC50: NC(N)=NCCC[C@H](NCN1CCN(C(=O)c2cc(Cc3n[nH]c(=O)c4ccccc34)ccc2F)CC1)C(=O)O [PPNR-4]
> 10 µM
